Test system: P. falciparum 3D7 growth, pLDH absorbance
testMethodNotes: blood-stage malaria parasite growth potency – strain 3D7, dose response (AID 2305)
assayReadout: log10 IC50 (log10 of the value in nM)
Lab note - IC50 converted to log10 from values in nM.

Guide cases for log10 IC50, answers given:
Query block: I am curious: what log10 IC50 value has been reported for "COc1ccc(CC2(CO)CCN(Cc3ccc(O)c(Cl)c3)CC2)cc1" ?
Result block: 2.93

Query block: Which log10 IC50 reading was recorded for the compound "O=C(Cc1ccc(-c2ccccc2)cc1)N[C@H]1CCN(Cc2ccc(OCCCN3CCCCC3)cc2)C1" ?
Result block: 2.89

Query block: Please look up its log10 IC50: CC(Cc1ccc(OCCN2CCN(c3cccc(Cl)c3)CC2)cc1)NCC(O)c1cccc(C(F)(F)F)c1 (centres undefined)
Result block: 2.78

Query block: Reported log10 IC50, compound "O=C(NCCCCN1CCC(c2ccc3ccccc3c2)CC1)c1ccc(NC(=O)c2ccc(Cl)cc2)cc1" : ____
Result block: 2.36

Query block: // returns reported log10 IC50 for input "CC(C)CCN1CCCN(Cc2cccc(NC(=O)c3ccc(-c4ccccc4)cc3)c2)CC1"
Result block: 2.95

Query block: Form field: reported log10 IC50 of "Cc1cccc(C(=O)Nc2ccnc(N3CCC(N(C)Cc4ccc(C#N)cc4)CC3)c2)c1"
Result block: 2.96

New cases:
Query block: Look at this compound and give its reported log10 IC50. "NC(N)=Nc1ccc(OCCCCCOc2ccc(N=C(N)N)cc2)cc1"
Result block: 2.28

Query block: Give its log10 IC50 value. Item: "O=S(=O)(c1c(Cl)cccc1Cl)N1CCCCC(c2ccc(C(F)(F)F)cc2)=N1"
Result block: 2.11

Query block: What measured log10 IC50 goes with CC(=O)Nc1ccc(CNC2Cc3ccc(-c4ccc(Cl)c(Cl)c4)cc3C2)cc1 (centres undefined) ?
Result block: 3.00

Query block: Need log10 IC50, item "Clc1cccc(CNc2nc(NCCc3cnc[nH]3)nc(NC3CCCCC3)n2)c1"
Result block: 2.90

Query block: Please give the measured log10 IC50 for this compound: Cc1cc(C(=O)N(Cc2ccc(-c3ccc(CNCCc4ccc(S(C)(=O)=O)cc4)cn3)cc2)C(C)CN(C)C)ccc1[N+](=O)[O-] (centres undefined)
Result block: 2.90

* * *

Tested on: P. falciparum 3D7 growth, pLDH absorbance
testMethodNotes: blood-stage malaria parasite growth potency – strain 3D7, dose response (AID 2305)
assayReadout: IC50 (nM)
Enter your answer as a number in nM; do not include the unit.

Query block: Request - read-out IC50 | tested on P. falciparum 3D7 growth, pLDH absorbance | compound "O=C(Cc1cnc[nH]1)Nc1ccc(-c2cccc(-c3nc4ccc(C(F)(F)F)cc4[nH]3)c2)cc1"
Result block: 740

Further cases:
Query block: Provide value of IC50 for this record tested with P. falciparum 3D7 growth, pLDH absorbance: "C=Cc1c(C2CCN(CCCCNC(=O)c3ccc(-c4ccc(C#N)cc4)cc3)CC2)ccc2c1CCCC2"
Result block: 880

Query block: Report IC50 for "N=C(N)c1ccc(NC(=O)c2cc(Sc3ccc(O)c(C(=O)Nc4ccc(C(=N)N)cc4)c3)ccc2O)cc1" tested on P. falciparum 3D7 growth, pLDH absorbance.
Result block: 120

Query block: Under P. falciparum 3D7 growth, pLDH absorbance: IC50 value of Fc1ccc2nc(-c3cccc(-c4cccc(CNCC5CCCO5)c4)c3)[nH]c2c1 (stereo not drawn) ?
Result block: 510

Query block: Look up IC50 with P. falciparum 3D7 growth, pLDH absorbance for this compound: "CC(=O)Nc1ncc(C(=O)Nc2cccc(-c3ccc(-c4nc5c(C)cccc5[nH]4)cc3)c2)s1"
Result block: 640

Query block: Query IC50 on P. falciparum 3D7 growth, pLDH absorbance for "COc1cc2c(cc1OC)CC(NCc1ccc(-c3ccc4nc[nH]c4c3)cc1)C2"
Result block: 850
